Recorded IC50 values for a group of compounds are listed next.
- TARGET: Staphylococcus aureus FabI (SaFabI) (Staphylococcus aureus)
- Sequence (Q6GI75 whole entry): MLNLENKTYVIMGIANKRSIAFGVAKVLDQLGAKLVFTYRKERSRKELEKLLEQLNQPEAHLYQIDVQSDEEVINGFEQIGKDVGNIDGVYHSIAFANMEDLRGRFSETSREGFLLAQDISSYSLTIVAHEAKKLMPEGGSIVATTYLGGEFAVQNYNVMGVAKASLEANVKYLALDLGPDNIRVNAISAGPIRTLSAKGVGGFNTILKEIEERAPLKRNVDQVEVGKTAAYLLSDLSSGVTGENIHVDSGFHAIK
- ASSAY OVERVIEW: biochemical
- Assay type: biochemical
- EXPERIMENTAL CONTEXT: 200 nM enzyme, 300 μM crotonyl-coenzymeA, 200 μM NADPH, pH 5.5; read-out: Enzyme inhibition or IC50 with SaFabl
State just the number; it will be interpreted in µM.

| COMPOUND | MEASURED VALUE |
| --- | --- |
| CC(=O)Nc1ccc(/C=C/C(=O)N2CCC(c3nccs3)C2)cn1 (stereo not shown) | 4.5 |
| COc1ccc(C2CCN(C(=O)Cc3ccccc3Cl)C2)cc1 (stereo not shown) | 12.5 |
| COc1ccccc1C1CCN(C(=O)Cc2ccccc2F)C1 (stereo not shown) | 4.6 |

Please examine the following record next.
Recorded IC50 of O=C(Cc1c(F)cccc1F)N1CCC(c2ccc3c(c2)OCO3)C1 (stereo not shown) , please.
2.3
